Listing: TGI of selected compounds
# Test system: SR leukemia
# test_description: NCI tumour cell line growth inhibition, 48 h

Examples from the recorded data:
> print(dat)
                                   compound  obs.value
1  CC1=CC(=O)CC(C)(C)C1(O)/C=C/C(C)=C/C(=O)O (stereo not drawn)   > 100 µM
2   CC(C)(C)OC(=O)[C@@H]1CCC(=S)N1Cc1ccccc1   > 100 µM
3  COC(=O)C(Cc1ccccc1)NC(=O)C(CCC(=O)OCc1ccccc1)NC(=O)OC(C)(C)C (stereo not drawn)   > 100 µM

Note to self: TGI recorded for O=C1CCCC2=C1CC1=C(CCCC1=O)N2c1ccccc1C(=O)O was > 100 µM

Note to self: TGI recorded for C/C(=C/c1ccccc1)CN(C(=O)/C=C\Sc1ccccc1)C(C)(C)C was > 100 µM

Note to self: TGI recorded for O=c1[nH]c(=O)n(C2OC(CO)C(O)C2O)c2ncc(-c3ccc(-c4ccccc4)cc3)nc12 (stereo not drawn) was > 20 µM

Note to self: TGI recorded for Cc1cc(S(=O)(=O)NC(=C(C#N)C#N)[n+]2ccc(N(C)C)cc2)c([S-])cc1Cl was > 100 µM

Note to self: TGI recorded for O=C1Oc2ccccc2C(=O)/C1=C/N1C(=O)/C(=C/c2ccc3c(c2)OCO3)SC1=S was 31.4 µM

---

Listing: TGI of selected compounds
# Test system: SK-MEL-5 melanoma
# test_description: NCI tumour cell line growth inhibition, 48 h

Examples from the recorded data:
> print(dat)
                                   compound             system  endpoint  obs.value
1  O=c1[nH]c(=O)n(C2OC(CO)C(O)C2O)c2ncc(-c3ccc(-c4ccccc4)cc3)nc12 (stereo not given)  SK-MEL-5 melanoma       TGI    > 20 µM
2         CC1=C(C)CC(C#N)(C#N)C(C#N)(C#N)C1  SK-MEL-5 melanoma       TGI    > 10 µM
3  Cc1cc(S(=O)(=O)NC(=C(C#N)C#N)[n+]2ccc(N(C)C)cc2)c([S-])cc1Cl  SK-MEL-5 melanoma       TGI   > 100 µM
4  N=C(N)/N=C(\N)c1c(-c2cc(O)ccc2O)nc2sccn12  SK-MEL-5 melanoma       TGI   > 100 µM
5  CNC1C(O)C(NC)C2OC3(O)C(=O)CC(C)OC3OC2C1O (stereo not given)  SK-MEL-5 melanoma       TGI   > 100 µM
6  COc1cccc(C(=O)Nc2c3ccccc3nc3ccccc23)c1OC  SK-MEL-5 melanoma       TGI   > 100 µM
7  CCOC(=O)/C(C=Nc1c(C)n(C)n(-c2ccccc2)c1=O)=C(/O)c1ccccc1  SK-MEL-5 melanoma       TGI   > 100 µM
8                  CC(C)OC(=O)Nc1cccc(Cl)c1  SK-MEL-5 melanoma       TGI   > 100 µM
9  COc1ccc(/C=N/n2c(=O)[nH]c3ccccc3c2=O)cc1  SK-MEL-5 melanoma       TGI   > 100 µM

Moving on to another compound below.
Note to self: TGI recorded for c1ccc(CSC2(SCc3ccccc3)CCCC2)cc1 was > 10 µM
